Numbers sourced from ChEMBL document CHEMBL6096682.

- Test system: MCF7
- protocolText: Antiproliferative activity against human MCF7 cells overexpressing EGFR assessed as reduction in cell viability incubated for 48 hrs by MTT assay
- Format: functional, cell-based
- testContext: MCF7, 48 h
pIC50: −log10 of the molar value.

[
  {
    "compound": "O=C(c1ccc(OCCCNC(=O)C23CC4CC(CC(C4)C2)C3)cc1)c1c(-c2ccc(O)cc2)sc2cc(O)ccc12",
    "pIC50": 4.80
  },
  {
    "compound": "C[C@@H]1CCC2[C@]34OO[C@](C)(CCC13)O[C@@H]4O[C@]2(C)C(=O)NCCCOc1ccc(C(=O)c2c(-c3ccc(O)cc3)sc3cc(O)ccc23)cc1 (some centres not stated)",
    "pIC50": 5.33
  }
]

====

- Test system: MCF7
- protocolText: Antiproliferative activity against human MCF7 cells assessed as reduction in cell viability incubated for 48 hrs by MTT assay relative to control
- Assay type: functional
# inhibition (INH) per record follows

[
  {
    "molecule": "C[C@@H]1CCC2[C@]34OO[C@](C)(CCC13)O[C@@H]4O[C@]2(C)C(=O)NCCCOc1ccc(C(=O)c2c(-c3ccc(O)cc3)sc3cc(O)ccc23)cc1 (stereo not given in full)",
    "inhibition (INH) (%)": 73.5
  },
  {
    "molecule": "O=C(c1ccc(OCCCNC(=O)C23CC4CC(CC(C4)C2)C3)cc1)c1c(-c2ccc(O)cc2)sc2cc(O)ccc12",
    "inhibition (INH) (%)": 70.8
  },
  {
    "molecule": "C[C@@H]1CCC2[C@]34OO[C@](C)(CCC13)O[C@@H]4O[C@]2(C)C(=O)NCCCCCCOc1ccc(C(=O)c2c(-c3ccc(O)cc3)sc3cc(O)ccc23)cc1 (stereo not given in full)",
    "inhibition (INH) (%)": 57.1
  },
  {
    "molecule": "C[C@@H]1CCC2[C@]34OO[C@](C)(CCC13)OC4O[C@]2(C)C(=O)NCCOc1ccc(C(=O)c2c(-c3ccc(O)cc3)sc3cc(O)ccc23)cc1 (single isomer, unassigned)",
    "inhibition (INH) (%)": 42.6
  },
  {
    "molecule": "C[C@@H]1CCC2[C@]34OO[C@](C)(CCC13)O[C@@H]4O[C@]2(C)C(=O)NCCCCOc1ccc(C(=O)c2c(-c3ccc(O)cc3)sc3cc(O)ccc23)cc1 (stereo not given in full)",
    "inhibition (INH) (%)": 63.5
  }
]

====

- Tested on: MCF7
- protocolText: Antiproliferative activity against human MCF7 cells assessed as reduction in cell viability incubated for 48 hrs by MTT assay
- Assay type: functional, cell-based
- testContext: MCF7, 48 h
Values of IC50 strictly less than 10 µM map to True, and values of at least 10 µM map to False.

[
  {
    "compound": "CC(=O)c1c(C)c2cnc(NCCCNC(=O)[C@@]3(C)OC4O[C@@]5(C)CCC6[C@H](C)CCC3[C@@]46OO5)nc2n(C2CCCC2)c1=O (single isomer, unassigned)",
    "category": "True"
  },
  {
    "compound": "C[C@@H]1CCC2[C@]34OO[C@](C)(CCC13)O[C@@H]4O[C@]2(C)C(=O)NCCCCOc1ccc(C(=O)c2c(-c3ccc(O)cc3)sc3cc(O)ccc23)cc1 (some centres not stated)",
    "category": "False"
  },
  {
    "compound": "C[C@@H]1CCC2[C@]34OO[C@](C)(CCC13)O[C@@H]4O[C@]2(C)C(=O)NCCCOc1ccc(C(=O)c2c(-c3ccc(O)cc3)sc3cc(O)ccc23)cc1 (some centres not stated)",
    "category": "True"
  },
  {
    "compound": "C[C@@H]1CCC2[C@]34OO[C@](C)(CCC13)OC4O[C@]2(C)C(=O)NCCCC(=O)Nc1ccc(NC(=O)CCCCCCC(=O)NO)cc1 (single isomer, unassigned)",
    "category": "True"
  },
  {
    "compound": "C[C@@H]1CCC2[C@]34OO[C@](C)(CCC13)OC4O[C@]2(C)C(=O)NCCOc1ccc(C(=O)c2c(-c3ccc(O)cc3)sc3cc(O)ccc23)cc1 (single isomer, unassigned)",
    "category": "False"
  },
  {
    "compound": "O=C(c1ccc(OCCCNC(=O)C23CC4CC(CC(C4)C2)C3)cc1)c1c(-c2ccc(O)cc2)sc2cc(O)ccc12",
    "category": "True"
  },
  {
    "compound": "C[C@@H]1CCC2[C@]34OO[C@](C)(CCC13)O[C@@H]4O[C@]2(C)C(=O)NCCCCCCOc1ccc(C(=O)c2c(-c3ccc(O)cc3)sc3cc(O)ccc23)cc1 (some centres not stated)",
    "category": "False"
  }
]
